Target: MOR-1 (mu) (Mus musculus)
Sequence (P42866 whole entry, looked up): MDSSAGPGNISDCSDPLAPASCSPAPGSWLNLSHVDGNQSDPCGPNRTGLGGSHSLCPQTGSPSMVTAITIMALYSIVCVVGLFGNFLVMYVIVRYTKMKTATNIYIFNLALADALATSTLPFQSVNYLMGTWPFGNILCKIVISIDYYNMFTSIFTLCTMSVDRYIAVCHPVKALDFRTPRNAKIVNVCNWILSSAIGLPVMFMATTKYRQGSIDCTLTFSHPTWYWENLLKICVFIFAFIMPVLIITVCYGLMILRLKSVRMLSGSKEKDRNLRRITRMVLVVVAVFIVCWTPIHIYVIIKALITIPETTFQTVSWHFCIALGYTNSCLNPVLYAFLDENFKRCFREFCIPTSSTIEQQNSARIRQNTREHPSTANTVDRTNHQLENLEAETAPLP
Test: Competition binding against 125I-BNtxA in CHO cells stably expressing MOR-1
Conditions: read-out: 125IBNtxA KD MOR-1; radioligand KD
pKd: −log10 of the molar value.
measured.parameter: pKd

> print(dat)
                                   compound  reported.result
1  O=C(NC1CCC2(O)C3Cc4ccc(O)c5c4C2(CCN3CC2CC2)C1O5)c1cccc(I)c1 (stereo not shown) [Compound 125IBNtxA, reference compound]             9.96
